test: Solvent solubility screen; type: physicochemical; conditions: water; read-out: Approx. Solubility
Measure: solubility

Query: Specify solubility for CN(C)CC1CCOC1(c1ccccc1)c1ccccc1 (stereo not shown) [A2-73 freebase Form I] and stop.
Reply: < 5000 µg/mL

----------
test: Solubility at defined pH; type: physicochemical; conditions: pH 1.2, simulated gastric fluid, pH 1.2; read-out: solubility
Measure: solubility

Query: Give me measured solubility, please, for this compound: CN(C)CC1CCOC1(c1ccccc1)c1ccccc1 (stereo not shown) [A2-73 dihydrogen phosphate Form I]
Reply: ~47.2 mg/mL

----------
assay: Solvent solubility screen; assay type: physicochemical; conditions: methyl acetate, organic solvent or mixture; read-out: Approx. Solubility
Measure: solubility

Query: Identify measured solubility associated with CN(C)CC1CCOC1(c1ccccc1)c1ccccc1 (stereo not shown) [A2-73 freebase Form I]
Reply: ≥ 200 mg/mL

----------
assay: Solvent solubility screen; format: physicochemical; conditions: heptane, organic solvent or mixture; read-out: Approx. Solubility
Measure: solubility

Query: Tell me measured solubility for CN(C)CC1CCOC1(c1ccccc1)c1ccccc1 (stereo not shown) [A2-73 freebase Form I] please.
Reply: ≥ 200 mg/mL

----------
test: Solvent solubility screen; format: physicochemical; conditions: dimethyl sulfoxide, organic solvent or mixture; read-out: Approx. Solubility
Measure: solubility

Query: Return the recorded solubility value; entry: CN(C)CC1CCOC1(c1ccccc1)c1ccccc1 (stereo not shown) [A2-73 freebase Form I]
Reply: ≥ 200 mg/mL

----------
test: Solvent solubility screen; type: physicochemical; conditions: 1-butanol, organic solvent or mixture; read-out: Approx. Solubility
Measure: solubility

Query: Fill in reported solubility for this entry: CN(C)CC1CCOC1(c1ccccc1)c1ccccc1 (stereo not shown) [A2-73 freebase Form I]
Reply: ≥ 200 mg/mL

----------
assay: Solvent solubility screen; assay type: physicochemical; conditions: methyl isobutyl ketone, organic solvent or mixture; read-out: Approx. Solubility
Measure: solubility

Query: Tell me its solubility given CN(C)CC1CCOC1(c1ccccc1)c1ccccc1 (stereo not shown) [A2-73 freebase Form I] as the entry.
Reply: ≥ 200 mg/mL

----------
assay: Solvent solubility screen; assay type: physicochemical; conditions: tetrahydrofuran, organic solvent or mixture; read-out: Approx. Solubility
Measure: solubility

Query: Answer with the recorded solubility for the molecule listed here: CN(C)CC1CCOC1(c1ccccc1)c1ccccc1 (stereo not shown) [A2-73 freebase Form I]
Reply: ≥ 200 mg/mL

----------
assay: Solubility at defined pH; assay type: physicochemical; details: pH 6.8, aqueous buffer, pH 6.8; read-out: solubility
Counter-ions that a name gives are not always drawn.
Measure: solubility

Query: Check the records and state solubility for CN(C)CC1CCOC1(c1ccccc1)c1ccccc1 (stereo not shown) [A2-73 hydrogen fumarate Form III]
Reply: ~12.6 mg/mL

----------
assay: Solvent solubility screen; assay type: physicochemical; conditions: 2-butanone, organic solvent or mixture; read-out: Approx. Solubility
Measure: solubility

Query: Specify measured solubility for CN(C)CC1CCOC1(c1ccccc1)c1ccccc1 (stereo not shown) [A2-73 freebase Form I] .
Reply: ≥ 200 mg/mL

----------
assay: Solvent solubility screen; format: physicochemical; conditions: cyclohexane, organic solvent or mixture; read-out: Approx. Solubility
Measure: solubility

Query: Please look at this compound and report its solubility: CN(C)CC1CCOC1(c1ccccc1)c1ccccc1 (stereo not shown) [A2-73 freebase Form I]
Reply: ≥ 200 mg/mL
